Tested on: KM12 cell (TPM3-TRKA)
Assay: Cell proliferation assay (CellTiter-Glo, 72 hours)
Format: cell-based, human
Details: Homo sapiens, KM12, anti-cell proliferation
hey, just use criterion met if measured IC50 is less than 10 nM, otherwise criterion not met

Problem: # check: IC50 < 10 nM for `C[C@H]1CNC(=O)c2cnn3cc4c(nc23)N(Cc2cc(F)cnc2O1)[C@@H]1CCCC[C@@H]1O4`
Solution: criterion not met

Problem: # check: IC50 < 10 nM for `O=C1NCC(O)(O)COc2ncc(F)cc2CN2c3nc4c1cnn4cc3O[C@H]1CCC[C@H]12`
Solution: criterion not met

Problem: # check: IC50 < 10 nM for `CC1(C)COc2ncc(F)cc2CN2c3nc4c(cnn4cc3O[C@H]3CCC[C@H]32)C(=O)N1`
Solution: criterion not met

Problem: # check: IC50 < 10 nM for `O=C1NCCCOc2ncc(F)cc2CN2c3nc4c1cnn4cc3O[C@H]1CCC[C@H]12`
Solution: criterion met

Problem: # check: IC50 < 10 nM for `C[C@H]1CNC(=O)c2cnn3cc4c(nc23)N(Cc2cc(F)cnc2O1)[C@@H]1CCC[C@@H]1O4`
Solution: criterion met

Problem: # check: IC50 < 10 nM for `C[C@H]1CCOc2ncc(F)cc2CN2c3nc4c(cnn4cc3O[C@H]3CCC[C@H]32)C(=O)N1`
Solution: criterion not met
